# Tested on: NCI-H460 human lung cancer cell line
# experiment: MTS cell viability assay (NCI-60 methodology), GI50/LC50, NCI-H460
# Assay type: cell-based
# condition-notes: 48 h, NCI-H460 cells, 2 days incubation with compound
Let's look at some molecules and their measured LC50 (concentration giving 50% net cell loss versus time zero, NCI-60 definition).
The reply should contain only the number, in nM.

Here's what some known entries look like.
- molecule: "CC(C)(C)c1ccc(-c2nc(NC(=O)c3ccc([N+](=O)[O-])s3)sc2-c2ccc(F)c(F)c2)cc1 [Compound 6-46]"
  result-number: 900
- molecule: "CCOc1ccc(-c2nc(NC(=O)c3ccc([N+](=O)[O-])s3)sc2Oc2cccc(C(F)(F)F)c2)cc1 [Compound 5-23]"
  result-number: 4430
- molecule: "CCCCc1ccc(-c2nc(NC(=O)c3ccc([N+](=O)[O-])s3)sc2Oc2ccccc2F)cc1 [Compound 5-80]"
  result-number: 1750

Switching to the query record.
Asked: Give the measured LC50 (concentration giving 50% net cell loss versus time zero, NCI-60 definition) for CC(C)(C)c1ccc(-c2nc(NC(=O)c3ccc([N+](=O)[O-])s3)sc2-c2ccc(Br)cc2)cc1 [Compound 6-53]
Given back: 1370

----------
# System: Hep3B hepatocellular carcinoma cell line
# experiment: MTS cell viability assay (NCI-60 methodology), GI50/LC50, Hep3B
# Assay type: cell-based
# condition-notes: Homo sapiens, 48 h, Hep3B cells, 2 days incubation with compound
Let's look at some compounds and their measured GI50.
The reply should contain only the number, in nM.

Here's what some known entries look like.
- smiles-representation: "CCC(CC)Oc1ccc(-c2nnc(NC(=O)Cc3ccc4nc(N)sc4c3)s2)cc1"
  result-number: 2830
- smiles-representation: "CCC(C)(C)c1ccc(-c2nc(NC(=O)c3ccc([N+](=O)[O-])s3)sc2Oc2ccc(F)cc2)cc1"
  result-number: 430
- smiles-representation: "CCCOc1ccc(-c2nc(NC(=O)c3ccc([N+](=O)[O-])s3)sc2Oc2ccccc2)cc1"
  result-number: 2430

Asked: Give the measured GI50 for CCOc1ccc(-c2nc(NC(=O)c3ccc([N+](=O)[O-])s3)sc2Cc2ccccc2)cc1
Given back: 1010

----------
# Test system: hepatocellular carcinoma cell line Hep3B
# experiment: Growth inhibition of Hep3B cells, 48 hr treatment, Hoechst 33342 nucleus count (GE InCell 2200)
# Type: cell-based
# condition-notes: Homo sapiens, Table 5, ratio of number of tumor cells treated with 10 μM compound to non-treated cells
Decision: viability at 10 µM beneath 40% gives MET; viability at 10 µM meeting or exceeding 40% gives NOT MET.

Examples with answers:
- smiles-representation: "CCOc1ccccc1-c1nc(NC(=O)c2ccc([N+](=O)[O-])s2)sc1Oc1ccccc1"
  assigned-label: "NOT MET"
- smiles-representation: "CCCCc1ccc(Oc2sc(NC(=O)c3ccc([N+](=O)[O-])s3)nc2-c2ccc(F)cc2)cc1"
  assigned-label: "NOT MET"
- smiles-representation: "CCCCc1ccc(-c2nc(NC(=O)c3ccc([N+](=O)[O-])s3)sc2Oc2ccc(F)cc2)cc1"
  assigned-label: "MET"
- smiles-representation: "CCCCOc1ccc(-c2nc(NC(=O)c3ccc([N+](=O)[O-])s3)sc2Oc2cc(C)c(Br)c(C)c2)cc1"
  assigned-label: "MET"
- smiles-representation: "CCC(C)(C)c1ccc(-c2nc(NC(=O)c3ccc([N+](=O)[O-])s3)sc2Oc2ccc(F)cc2)cc1"
  assigned-label: "MET"
- smiles-representation: "O=C(Nc1nc(-c2ccc(OC(F)(F)F)cc2)c(Oc2ccccc2)s1)c1ccc([N+](=O)[O-])s1"
  assigned-label: "MET"
- smiles-representation: "CCCOc1ccc(-c2nc(NC(=O)c3ccc([N+](=O)[O-])s3)sc2Oc2ccccc2)cc1"
  assigned-label: "MET"
- smiles-representation: "O=C(Nc1nc(-c2ccc(Br)cc2)c(Oc2cccc(C(F)(F)F)c2)s1)c1ccc([N+](=O)[O-])s1"
  assigned-label: "MET"

Asked: Determine if CCC(C)(C)c1ccc(Oc2sc(NC(=O)c3ccc([N+](=O)[O-])s3)nc2-c2ccc(F)cc2)cc1 shows viability at 10 µM strictly lower than 40%.
Given back: NOT MET

Asked: Determine if CC(C)(C)c1ccc(Oc2sc(NC(=O)c3ccc([N+](=O)[O-])s3)nc2-c2ccc(F)cc2)cc1 shows viability at 10 µM strictly lower than 40%.
Given back: NOT MET

Asked: Determine if CCCCOc1ccc(-c2nc(NC(=O)c3ccc([N+](=O)[O-])s3)sc2Oc2ccc(C#N)cc2)cc1 shows viability at 10 µM strictly lower than 40%.
Given back: NOT MET

Asked: Determine if CCCCOc1ccc(Oc2sc(NC(=O)c3ccc([N+](=O)[O-])s3)nc2-c2ccc(F)cc2)cc1 shows viability at 10 µM strictly lower than 40%.
Given back: NOT MET

Asked: Determine if CCOc1ccc(-c2nc(NC(=O)c3ccc([N+](=O)[O-])s3)sc2Oc2ccccc2)cc1 shows viability at 10 µM strictly lower than 40%.
Given back: NOT MET

Asked: Determine if COc1cccc(-c2nc(NC(=O)c3ccc([N+](=O)[O-])s3)sc2Oc2ccccc2)c1 shows viability at 10 µM strictly lower than 40%.
Given back: NOT MET

----------
# Tested on: hepatocellular carcinoma cell line Hep3B
# experiment: Growth inhibition of Hep3B cells, 48 hr treatment, Hoechst 33342 nucleus count (GE InCell 2200)
# Format: cell-based
# condition-notes: Homo sapiens, Table 5, ratio of number of tumor cells treated with 10 μM compound to non-treated cells
measured-endpoint: viability at 10 µM

- smiles-representation: "CCOc1ccc(-c2nc(N(C)C(=O)c3ccc([N+](=O)[O-])s3)sc2Oc2ccccc2)cc1"
  viability at 10 µM: "59%"
- smiles-representation: "CCCOc1ccc(-c2nc(NC(=O)c3ccc([N+](=O)[O-])s3)sc2Oc2ccc(C#N)cc2)cc1"
  viability at 10 µM: "56%"
- smiles-representation: "CCCOc1ccc(-c2nc(NC(=O)c3ccc([N+](=O)[O-])s3)sc2Oc2cc(F)cc(F)c2)cc1"
  viability at 10 µM: "42%"

Asked: Param request: viability at 10 µM | system hepatocellular carcinoma cell line Hep3B | item CCC(C)(C)c1ccc(Oc2sc(NC(=O)c3ccc([N+](=O)[O-])s3)nc2-c2ccc(C(F)(F)F)cc2)cc1
Given back: 49%

Asked: Param request: viability at 10 µM | system hepatocellular carcinoma cell line Hep3B | item CCOc1ccc(-c2nc(NC(=O)c3ccc([N+](=O)[O-])s3)sc2Oc2ccccc2F)cc1
Given back: 43%

Asked: Param request: viability at 10 µM | system hepatocellular carcinoma cell line Hep3B | item O=C(Nc1nc(-c2ccc(F)cc2)c(Oc2ccccc2OC(F)(F)F)s1)c1ccc([N+](=O)[O-])s1
Given back: 48%

Asked: Param request: viability at 10 µM | system hepatocellular carcinoma cell line Hep3B | item CC(C)(C)c1ccc(-c2nc(NC(=O)c3ccc([N+](=O)[O-])s3)sc2Oc2ccc(C(F)(F)F)cc2)cc1
Given back: 33%

----------
# Test system: Hep3B hepatocellular carcinoma cell line
# experiment: MTS cell viability assay (NCI-60 methodology), GI50/LC50, Hep3B
# Assay type: cell-based
# condition-notes: Homo sapiens, 48 h, Hep3B cells, 2 days incubation with compound
Let's look at some compounds and their measured LC50.
Give me the value, and tack the unit on after it.

Asked: Give the measured LC50 for CCCOc1ccc(-c2nc(NC(=O)c3ccc([N+](=O)[O-])s3)sc2Oc2ccc(C#N)cc2)cc1 [Compound 5-39]
Given back: 5.53 µM

Asked: Give the measured LC50 for CCC(C)(C)c1ccc(-c2nc(NC(=O)c3ccc([N+](=O)[O-])s3)sc2-c2ccc(F)cc2F)cc1 [Compound 6-47]
Given back: 0.66 µM

Asked: Give the measured LC50 for CC(C)(C)c1ccc(-c2nc(NC(=O)c3ccc([N+](=O)[O-])s3)sc2Oc2cccc(F)c2)cc1 [Compound 5-22]
Given back: 4.03 µM

----------
# Tested on: hepatocellular carcinoma cell line Hep3B
# experiment: Growth inhibition of Hep3B cells, 48 hr treatment, Hoechst 33342 nucleus count (GE InCell 2200)
# Assay type: cell-based
# condition-notes: Homo sapiens, Table 5, ratio of number of tumor cells treated with 10 μM compound to non-treated cells
# Procedure: The potency of selected compounds was defined by the growth inhibition ability to the hepatocellular carcinoma cell line Hep3B. The Hep3B cells were treated with selected compounds for 48 hr under 37° C., 5% CO2, and 95% relative humidity. The number of treated cells was determined by GE InCell 2200 system, and treated cells were stained with Hoechst 33342 which can reveal the remained nucleus in culture plate. […]
measured-endpoint: viability at 10 µM (%)
The reply should contain only the number, in %.

Here's what some known entries look like.
- smiles-representation: "COc1ccc(-c2nc(NC(=O)c3ccc([N+](=O)[O-])s3)sc2Oc2ccccc2)cc1"
  assayed-system: "hepatocellular carcinoma cell line Hep3B"
  unit-name: "%"
  viability at 10 µM: 54
- smiles-representation: "CCCCOc1ccc(-c2nc(NC(=O)c3ccc([N+](=O)[O-])s3)sc2Oc2ccc(C(C)(C)C)cc2)cc1"
  assayed-system: "hepatocellular carcinoma cell line Hep3B"
  unit-name: "%"
  viability at 10 µM: 48
- smiles-representation: "COCCOc1ccc(-c2nc(NC(=O)c3ccc([N+](=O)[O-])s3)sc2Oc2cccnc2)cc1"
  assayed-system: "hepatocellular carcinoma cell line Hep3B"
  unit-name: "%"
  viability at 10 µM: 54

Asked: Give the measured viability at 10 µM for O=C(Nc1nc(-c2cccc([N+](=O)[O-])c2)c(Oc2ccccc2)s1)c1ccc([N+](=O)[O-])s1
Given back: 82
